Experimental target: Fucose-binding lectin PA-IIL (Pseudomonas aeruginosa (strain ATCC 15692 / DSM 22644 / CIP 104116 / JCM 14847 / LMG 12228 / 1C / PRS 101 / PAO1))
Sequence (Q9HYN5 whole entry): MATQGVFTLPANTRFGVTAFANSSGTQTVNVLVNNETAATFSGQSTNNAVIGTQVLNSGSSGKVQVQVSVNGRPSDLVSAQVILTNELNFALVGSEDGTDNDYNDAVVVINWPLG
Value type: pEC50
// returns pEC50 (minus log10 of molar concentration), number only

## Task Give me measured pEC50, please, for this compound: CC1O[C@@H](OCCNC(=S)Nc2ccc(-c3c4ccc(=O)cc-4oc4cc(O)ccc34)c(C(=O)O)c2)[C@@H](O)C(O)[C@@H]1O (stereo partly specified)
## Result 6.16

* * *

Experimental target: Fucose-binding lectin PA-IIL (Pseudomonas aeruginosa (strain ATCC 15692 / DSM 22644 / CIP 104116 / JCM 14847 / LMG 12228 / 1C / PRS 101 / PAO1))
pIC50: −log10 of the molar value.
Classification field: True = pIC50 at or over 4; False = pIC50 under 4.

## Task Check the entry CC1O[C@@H](OCCNC(=S)Nc2ccc(-c3c4ccc(=O)cc-4oc4cc(O)ccc34)c(C(=O)O)c2)[C@@H](O)C(O)[C@@H]1O (some centres undefined) : does pIC50 equal or exceed 4?
## Result True

## Task Does COC1O[C@H](CN)[C@@H](O)C(O)[C@@H]1O (some centres undefined) have a reported pIC50 of at least 4?
## Result False

## Task # bool: pIC50 of COC1O[C@H](CNC(=O)Cc2ccccc2)[C@@H](O)C(O)[C@@H]1O (some centres undefined) >= 4
## Result True

## Task Answer whether pIC50 of COC1O[C@H](CNS(=O)(=O)c2ccc([N+](=O)O)cc2)[C@@H](O)C(O)[C@@H]1O (some centres undefined) is greater than or equal to 4.
## Result True

## Task Does pIC50 meet or surpass 4 for COC1O[C@H](Cn2cc(-c3cccc(C)c3)nn2)[C@@H](O)C(O)[C@@H]1O (some centres undefined) ?
## Result False

## Task I'd appreciate it if you could say whether COC1O[C@H](CNCc2ccc(Cl)cc2)[C@@H](O)C(O)[C@@H]1O (some centres undefined) has pIC50 at least equal to 4.
## Result False

## Task I'd appreciate it if you could say whether COC1O[C@H](CNC(=O)C(c2ccccc2)c2ccccc2)[C@@H](O)C(O)[C@@H]1O (some centres undefined) has pIC50 at least equal to 4.
## Result False

## Task Please check the record COC1O[C@H](Cn2cc(-c3ccccc3)nn2)[C@@H](O)C(O)[C@@H]1O (some centres undefined) and state if its pIC50 is at or above 4.
## Result False

## Task I'd appreciate it if you could say whether COC1O[C@H](CNC(=O)c2ccc([N+](=O)O)cc2)[C@@H](O)C(O)[C@@H]1O (some centres undefined) has pIC50 at least equal to 4.
## Result True

## Task Answer whether pIC50 of COC1O[C@H](Cn2cc(-c3ccc(F)cc3)nn2)[C@@H](O)C(O)[C@@H]1O (some centres undefined) is greater than or equal to 4.
## Result False

## Task Quick check: does COC1O[C@H](CNS(=O)(=O)c2ccc(Br)cc2)[C@@H](O)C(O)[C@@H]1O (some centres undefined) have pIC50 greater than or equal to 4?
## Result True
